The origin of these recorded values is patent US20240252488A1.

Molecular target: MLKL (Homo sapiens, UniProt Q8NB16)
Sequence (Q8NB16 1-471): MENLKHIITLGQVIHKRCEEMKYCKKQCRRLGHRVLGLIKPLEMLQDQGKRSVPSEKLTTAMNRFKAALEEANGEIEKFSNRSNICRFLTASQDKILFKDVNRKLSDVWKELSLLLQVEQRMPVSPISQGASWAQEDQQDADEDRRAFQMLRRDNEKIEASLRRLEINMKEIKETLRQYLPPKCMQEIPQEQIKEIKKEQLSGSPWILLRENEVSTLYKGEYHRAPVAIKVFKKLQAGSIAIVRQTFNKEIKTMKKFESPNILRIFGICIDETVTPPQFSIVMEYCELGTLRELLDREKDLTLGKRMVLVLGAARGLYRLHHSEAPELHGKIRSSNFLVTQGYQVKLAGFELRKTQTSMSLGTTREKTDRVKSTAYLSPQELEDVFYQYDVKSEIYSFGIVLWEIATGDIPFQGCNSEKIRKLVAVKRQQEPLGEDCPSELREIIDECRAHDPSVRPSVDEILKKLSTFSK
Test: MLKL degradation assay in HepG2 cell line (western blot)
Assay type: cell-based
Design: endogenous in cells; host or cells: HepG2 or HaCaT
Conditions: compound 1 μM; cell line not given
// assign Yes if Degradation assay (Degradation %) 1 μM falls strictly below 70%, else No (ties count as No)

Compound | Label
Nc1ncc(-c2cnn(C3CCN(CCOCCNC(=O)CNc4cccc5c4C(=O)N(C4CCC(=O)NC4=O)C5=O)CC3)c2)nc1C(=O)O[C@@H](C(=O)Nc1ccc(F)cc1)c1ccccc1 (stereo partly shown) [TDH-096] | Yes
Nc1ncc(-c2cnn(C3CCN(CCC4CCN(c5cc6c(cc5F)C(=O)N(C5CCC(=O)NC5=O)C6=O)CC4)CC3)c2)nc1C(=O)O[C@@H](C(=O)Nc1ccc(F)cc1)c1ccccc1 (stereo partly shown) [TDH-520] | No
Nc1ncc(-c2cnn(C3CCN(CCc4cn(C5CCN(C(=O)COc6ccc7c(c6)C(=O)N(C6CCC(=O)NC6=O)C7=O)CC5)nn4)CC3)c2)nc1C(=O)O[C@@H](C(=O)Nc1ccc(F)cc1)c1ccccc1 (stereo partly shown) [TDH-451] | Yes
Nc1ncc(-c2cnn(C3CCN(CC4CCN(C(=O)C5CCN(c6cccc7c6C(=O)N(C6CCC(=O)NC6=O)C7=O)CC5)CC4)CC3)c2)nc1C(=O)O[C@@H](C(=O)Nc1ccc(F)cc1)c1ccccc1 (stereo partly shown) [TDH-146] | Yes
Nc1ncc(-c2cnn(C3CCN(C(=O)CCC4CCN(C(=O)COc5ccc6nnn(C7CCC(=O)NC7=O)c(=O)c6c5)CC4)CC3)c2)nc1C(=O)O[C@@H](C(=O)Nc1ccc(F)cc1)c1ccccc1 (stereo partly shown) [TDH-437] | No
Nc1ncc(-c2cnn(C3CN(CC4CCN(C(=O)COc5ccc6c(c5)C(=O)N(C5CCC(=O)NC5=O)C6=O)CC4)C3)c2)nc1C(=O)OC(C(=O)Nc1ccc(F)cc1)c1ccccc1 (stereo not shown) [TDH-299] | No

---

Target: MLKL (Homo sapiens, UniProt Q8NB16)
Assay: MLKL degradation assay in HepG2 cell line (western blot)
Type: cell-based
Set-up: endogenous in cells; host or cells: HepG2 or HaCaT
Settings: compound 1 μM; cell line not given
Param threshold (60%) applies to Degradation assay (Degradation %) 1 μM; output Yes when value >= threshold, No when value < threshold.

Compound | Label
Nc1ncc(-c2cnn(C3CCN(CC4CCN(C(=O)COc5ccc6c(c5)C(=O)N(C5CCC(=O)NC5=O)C6=O)CC4)CC3)c2)nc1C(=O)O[C@@H](C(=O)Nc1ccc(F)cc1)c1ccccc1 (stereo partly drawn) | Yes
Nc1ncc(-c2cnn(C3CCN(CCOC4CCN(C(=O)C5CCN(c6cccc7c6C(=O)N(C6CCC(=O)NC6=O)C7=O)CC5)CC4)CC3)c2)nc1C(=O)OC(C(=O)Nc1ccc(F)cc1)c1ccccc1 (stereo not drawn) | Yes
Nc1ncc(-c2cnn(C3CCN(C[C@H]4CC[C@H](CNC(=O)CNc5ccc6c(c5)C(=O)N(C5CCC(=O)NC5=O)C6=O)CC4)CC3)c2)nc1C(=O)O[C@@H](C(=O)Nc1ccc(F)cc1)c1ccccc1 (stereo partly drawn) | No
Nc1ncc(-c2cnn([C@H]3CCN(CCOCCOCCNC(=O)CNc4cccc5c4C(=O)N(C4CCC(=O)NC4=O)C5=O)C3)c2)nc1C(=O)OC(C(=O)Nc1ccc(F)cc1)c1ccccc1 (stereo partly drawn) | Yes
Nc1ncc(-c2cn(C3CCN(CC4CCN(C(=O)C5CCN(c6cccc7c6C(=O)N(C6CCC(=O)NC6=O)C7=O)CC5)CC4)CC3)nn2)nc1C(=O)OC(C(=O)Nc1ccc(F)cc1)c1ccccc1 (stereo not drawn) | No
Nc1ncc(-c2cnn(C3CCN(CC4CN(c5ccc6c(c5)C(=O)N(C5CCC(=O)NC5=O)C6=O)CCO4)CC3)c2)nc1C(=O)OC(C(=O)Nc1ccc(F)cc1)c1ccccc1 (stereo not drawn) | Yes
Nc1ncc(-c2cnn(C3CCN(CCC4CCN(C(=O)COc5ccc6c(c5)C(=O)N(C5CCC(=O)NC5=O)C6=O)CC4)CC3)c2)cc1C(=O)OC(C(=O)Nc1ccc(F)cc1)c1ccccc1 (stereo not drawn) | No
Nc1ncc(-c2cnn(C3CCN(CCCN4CCN(C(=O)COc5ccc6c(c5)C(=O)N(C5CCC(=O)NC5=O)C6=O)CC4)CC3)c2)nc1C(=O)O[C@@H](C(=O)Nc1cccc(Cl)c1)c1ccccc1 (stereo partly drawn) | Yes
Nc1ncc(-c2cnn(C3CCN(CCOC4CCN(C(=O)COc5ccc6nnn(C7CCC(=O)NC7=O)c(=O)c6c5)CC4)CC3)c2)nc1C(=O)O[C@@H](C(=O)Nc1ccc(F)cc1)c1ccccc1 (stereo partly drawn) | Yes
Nc1ncc(-c2cnn(C3CCN(C(=O)COCCOCCNC(=O)C4CCN(c5ccc6c(c5)C(=O)N(C5CCC(=O)NC5=O)C6=O)CC4)CC3)c2)nc1C(=O)O[C@@H](C(=O)Nc1ccc(F)cc1)c1ccccc1 (stereo partly drawn) | Yes
Nc1ncc(-c2cnn(C3CCN(CC4CN(c5cccc6c5C(=O)N(C5CCC(=O)NC5=O)C6=O)CCO4)CC3)c2)nc1C(=O)OC(C(=O)Nc1ccc(F)cc1)c1ccccc1 (stereo not drawn) | No
